Test system: BV-2
Experiment: Cytotoxicity against mouse BV-2 cells at 6.25 to 100 uM after 24 hrs by MTT assay
Assay type: cell-based
Details: bv-2, 24 h, dose 6.25-100 µM
measurement.label: Activity

smiles.record: C/C=C(/C)C(=O)O[C@@H]1[C@@H](OC(C)=O)[C@H](O[C@]2(C)CC[C@@H]3[C@H]([C@@H]4[C@H](C)CC[C@@H]42)C3(C)C)OC[C@H]1O
reported: Non-Toxic

smiles.record: C/C=C(/C)C(=O)O[C@H]1[C@H](O)[C@@H](CO)O[C@@H](O[C@]2(C)CC[C@@H]3[C@H]([C@@H]4[C@H](C)CC[C@@H]42)C3(C)C)[C@@H]1OC(C)=O
reported: Non-Toxic

smiles.record: CC(=O)O[C@H]1[C@H](O[C@@]2(C)CC[C@@H]3[C@H]([C@@H]4[C@H](C)CC[C@@H]42)C3(C)C)O[C@H](C)[C@H](O)[C@@H]1OC(=O)C=C(C)C
reported: Non-Toxic

smiles.record: CC1(C)[C@H]2[C@H]3[C@@H](CC[C@@]3(C)O)[C@](C)(O)CC[C@H]21
reported: Non-Toxic

Q: Record lookup: for BV-2, what Activity belongs to CC(=O)O[C@H]1[C@H](O[C@]2(C)CC[C@@H]3[C@H]([C@@H]4[C@H](C)CC[C@@H]42)C3(C)C)O[C@H](C)[C@H](O)[C@@H]1OC(=O)/C=C(/C)CO ?
Result: Non-Toxic

Q: Same lookup for C=C1C[C@@H](O[C@@H]2O[C@H](C)[C@H](O)[C@H](OC(=O)/C(C)=C/C)[C@H]2OC(C)=O)[C@@H](C(C)C)[C@@H]2C=C(C)CC[C@@H]12 , please.
Result: Non-Toxic

Q: For C=C1C[C@H](O[C@@H]2O[C@H](C)[C@H](O)[C@H](OC(=O)/C(C)=C/C)[C@H]2OC(C)=O)[C@H]2[C@@H]([C@H]3[C@@H]1CC[C@]3(C)O)C2(C)C then?
Result: Non-Toxic

Q: Here is the next compound: CC(=O)O[C@@H]1[C@H](OC(=O)C=C(C)C)[C@@H](OC(C)=O)[C@H](O[C@@]2(C)CC[C@@H]3[C@H]([C@@H]4[C@H](C)CC[C@@H]42)C3(C)C)O[C@@H]1C
Result: Non-Toxic
